biological target: hGal-3 (Homo sapiens)
Sequence (P17931 2-250): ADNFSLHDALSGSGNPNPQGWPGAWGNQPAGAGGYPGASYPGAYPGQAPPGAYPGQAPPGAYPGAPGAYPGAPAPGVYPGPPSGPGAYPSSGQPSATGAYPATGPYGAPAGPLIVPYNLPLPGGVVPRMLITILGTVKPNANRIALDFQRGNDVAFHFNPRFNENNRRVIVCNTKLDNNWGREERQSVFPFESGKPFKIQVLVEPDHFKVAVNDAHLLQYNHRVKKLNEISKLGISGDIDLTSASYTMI
// reported Kd for each item listed
Give a bare numeral; the unit µM is implied.

Sample answers from the record:
Exercise: Return reported Kd; argument: CC(=O)N[C@H]1[C@H](O[C@H]2[C@@H](O)[C@@H](CO)O[C@@H](O[C@H]3[C@H](O)[C@@H](NC(C)=O)[C@H](OCCN=[N+]=[N-])O[C@@H]3CO)[C@@H]2O)O[C@H](CO)[C@@H](O[C@@H]2O[C@H](CO)[C@H](O)[C@H](O)[C@H]2O)[C@@H]1O
Solution: 5.6

Exercise: Return reported Kd; argument: CC(=O)N[C@H]1[C@H](O[C@H]2[C@@H](O)[C@@H](CO)O[C@@H](O[C@H]3[C@H](O)[C@@H](O)[C@H](OCCCN)O[C@@H]3CO)[C@@H]2O)O[C@H](CO)[C@@H](O)[C@@H]1O[C@@H]1O[C@H](CO)[C@H](O)[C@H](O)[C@H]1O
Solution: 28.1

Exercise: Return reported Kd; argument: OC[C@H]1O[C@@H]([Se][Se][C@@H]2O[C@H](CO)[C@H](O)[C@H](O)[C@H]2O)[C@H](O)[C@@H](O)[C@H]1O
Solution: 2800

Now for the compound whose Kd we want.
Exercise: Return reported Kd; argument: OC[C@H]1O[C@@H]([Se][C@@H]2O[C@H](CO)[C@H](O)[C@H](O)[C@H]2O)[C@H](O)[C@@H](O)[C@H]1O
Solution: 93.1
